# Tested on: c-Abl (mouse)
# Test Method Notes: phosphorylation enrichment, bacterial display (enrichment ratio); higher = better substrate or ligand; peptides without Tyr show the background
Each entry falls into one class according to its phosphorylation enrichment; the ranges are LOW: < 0.6; MID: ≥ 0.6 and < 0.7; HIGH: ≥ 0.7

| Record Sequence | Target | Class |
| --- | --- | --- |
| DPASAYADEVK [ETNPPL_Y189_S185P] | c-Abl (mouse) | HIGH |
| SNNFIYKTLGV [FAM83B_Y639_YF] | c-Abl (mouse) | MID |
| ERPGVYTNVVE [F11_Y608] | c-Abl (mouse) | LOW |
| FSCLPYRRLAF [SLC52A2_Y305_G306R_YF] | c-Abl (mouse) | MID |
| DLDATYRPMFS [JUP_Y701_M697L_YF] | c-Abl (mouse) | MID |
| KMKGDYFRFLA [YWHAG_Y130_YF] | c-Abl (mouse) | HIGH |
| GPCKAYELSQR [SETX_Y1297_R1294C] | c-Abl (mouse) | MID |
| YPKARYRWLVL [APTX_Y214_H215R] | c-Abl (mouse) | LOW |
| YADPYYDYEIE [ZC3H18_Y372] | c-Abl (mouse) | HIGH |
| PDGREYIFVDP [PDGFRA_Y572_H570R_YF] | c-Abl (mouse) | LOW |

Let's switch to this sequence now.
Exam item: Class (by measured phosphorylation enrichment) for QQLVAYFSKHT [SRC_Y232_A237T_YF]
Marked response: MID

====

# Target: SHP2-C SH2;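 note: peptide library displayed on the E. coli surface as eCPX fusions, selected cells deep-sequenced, score is each peptide's frequency after selection divided by its frequency in the input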
# Test Method Notes: SH2 binding enrichment of the phosphorylated peptide, bacterial display (enrichment ratio); higher = better substrate or ligand; peptides without Tyr show the background
Lab note: compare SH2 binding enrichment against 0.8. Equal or greater, write Y. Smaller, write N.

Some solved cases for reference:
| Record Sequence | Class |
| --- | --- |
| KNITEYCRHLI [RECQL_Y492_D495H] | N |
| AEPNIYQEKLS [USP54_Y1233_D1231N] | Y |

Exam item: Determine whether this sequence has SH2 binding enrichment no lower than 0.8: APSHAYHRGVL [ANO1_Y981_G983R]
Marked response: Y

Exam item: Determine whether this sequence has SH2 binding enrichment no lower than 0.8: TFVKSYTIHFS [F5_Y2153_M2148T_YF]
Marked response: N

====

Reported values of phosphorylation enrichment for individual entries
# Target: Jak2 (UniProt O60674)
# Sequence (O60674 whole entry, looked up): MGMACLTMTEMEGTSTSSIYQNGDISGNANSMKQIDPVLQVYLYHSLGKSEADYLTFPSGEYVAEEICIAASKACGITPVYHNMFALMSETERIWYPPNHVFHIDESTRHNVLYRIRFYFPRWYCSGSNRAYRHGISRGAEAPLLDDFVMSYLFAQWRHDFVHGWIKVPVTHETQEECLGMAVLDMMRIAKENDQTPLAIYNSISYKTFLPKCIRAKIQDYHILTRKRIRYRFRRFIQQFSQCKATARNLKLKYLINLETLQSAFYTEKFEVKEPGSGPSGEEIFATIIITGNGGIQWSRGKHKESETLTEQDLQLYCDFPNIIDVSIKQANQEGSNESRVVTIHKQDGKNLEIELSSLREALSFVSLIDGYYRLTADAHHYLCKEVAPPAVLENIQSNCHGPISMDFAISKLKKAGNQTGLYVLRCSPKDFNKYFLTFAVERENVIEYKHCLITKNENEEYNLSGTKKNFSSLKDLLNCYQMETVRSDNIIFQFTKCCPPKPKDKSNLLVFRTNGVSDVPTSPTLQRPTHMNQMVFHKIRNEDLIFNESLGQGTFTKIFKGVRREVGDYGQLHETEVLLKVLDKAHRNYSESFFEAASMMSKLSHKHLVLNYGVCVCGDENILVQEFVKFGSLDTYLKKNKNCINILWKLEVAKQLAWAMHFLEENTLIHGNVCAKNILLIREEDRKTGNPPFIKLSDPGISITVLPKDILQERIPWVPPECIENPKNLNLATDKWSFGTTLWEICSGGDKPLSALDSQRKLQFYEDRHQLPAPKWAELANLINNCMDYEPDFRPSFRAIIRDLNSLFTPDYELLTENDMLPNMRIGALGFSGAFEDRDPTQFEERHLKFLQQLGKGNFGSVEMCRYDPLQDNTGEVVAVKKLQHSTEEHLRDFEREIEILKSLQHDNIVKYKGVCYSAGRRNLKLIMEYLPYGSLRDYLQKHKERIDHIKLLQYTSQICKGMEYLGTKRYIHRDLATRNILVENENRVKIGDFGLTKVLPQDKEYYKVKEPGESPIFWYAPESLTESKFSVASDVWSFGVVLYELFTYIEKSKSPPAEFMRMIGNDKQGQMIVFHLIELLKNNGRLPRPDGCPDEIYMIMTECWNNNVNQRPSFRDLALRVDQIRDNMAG
# Test Method Notes: phosphorylation enrichment, bacterial display (enrichment ratio); higher = better substrate or ligand; peptides without Tyr show the background
In your answer, state the number alone without any accompanying words.

| Record Sequence | Target | phosphorylation enrichment |
| --- | --- | --- |
| NPIGLYSAETL [LDB3_Y202] | Jak2 (UniProt O60674) | 0.71 |
| KHGGNYVPAPK [OSCP1_Y237] | Jak2 (UniProt O60674) | 0.692 |
| DVCKNYTEAKD [ALB_Y343_A344T] | Jak2 (UniProt O60674) | 0.712 |

Exam item: Find the measured phosphorylation enrichment: item YRDALYKSMVD [PHEX_Y250_F252S] , target or system Jak2 (UniProt O60674).
Marked response: 0.717
